Test system: HCC1937
Assay: normalised response (% of control), CellTiter-Glo; higher = more viable cells (100 = DMSO, 0 = benzethonium chloride kill control)
Details: incubation time: 72 h
endpoint-name: normalised response (%)
Numbers only, in %.

compound: C[C@]1(c2nc3c(C(N)=O)cccc3[nH]2)CCCN1 [Veliparib] (10000 nM)
unit-of-measure: %
recorded-value: 93.6
//
compound: COc1cc(Nc2ncc3c(n2)-c2ccc(Cl)cc2C(c2c(F)cccc2OC)=NC3)ccc1C(=O)O [Alisertib] (10000 nM)
unit-of-measure: %
recorded-value: 64.5
//
compound: N#CC[C@H](C1CCCC1)n1cc(-c2ncnc3[nH]ccc23)cn1 [Ruxolitinib] (10000 nM)
unit-of-measure: %
recorded-value: 96.9
//
compound: Clc1ccc(C(c2ccccc2Cl)C(Cl)Cl)cc1 (stereo unspecified) [Mitotane] (10000 nM)
unit-of-measure: %
recorded-value: 94.9
//
compound: CCN1CCN(c2ccc(Nc3cc(N(C)C(=O)Nc4c(Cl)c(OC)cc(OC)c4Cl)ncn3)cc2)CC1 [NVP-BGJ398] (1000 nM)
unit-of-measure: %
recorded-value: 95.7

Now examine the next entry.
Query string: Output measured normalised response for this item: COc1cccc2cc(-c3nc([C@H]4CC[C@H](C(=O)O)CC4)n4ncnc(N)c34)[nH]c12 [OSI-027] (10000 nM)
Result string: 47.6

====

Tested on: HCC1599
Assay: normalised response (% of control), CellTiter-Glo; higher = more viable cells (100 = DMSO, 0 = benzethonium chloride kill control)
Conditions: incubation time: 72 h
endpoint-name: normalised response (%)
Give bare numbers, in %.

Use these answered entries as a reference point.
compound: N#CC[C@H](C1CCCC1)n1cc(-c2ncnc3[nH]ccc23)cn1 [Ruxolitinib] (1 nM)
normalised response, %: 93.5

compound: COc1cccc2c1C(=O)c1c(O)c3c(c(O)c1C2=O)C[C@@](O)(C(=O)CO)C[C@@H]3O[C@H]1C[C@H](N)[C@H](O)[C@H](C)O1 [Doxorubicin] (0.1 nM)
normalised response, %: 119

compound: Nc1ccn([C@@H]2O[C@H](CO)[C@@H](O)[C@@H]2O)c(=O)n1 [Cytarabine] (10 nM)
normalised response, %: 90.2

Working through the 4 compounds below one at a time, give normalised response for each.
1. S=c1[nH]cnc2nc[nH]c12 [Mercaptopurine] (10 nM)
2. COc1cccc2c1C(=O)c1c(O)c3c(c(O)c1C2=O)C[C@@](O)(C(=O)CO)C[C@@H]3O[C@H]1C[C@H](N)[C@H](O)[C@H](C)O1 [Doxorubicin] (1 nM)
3. CS(=O)(=O)c1ccc(C(=O)Nc2ccc(Cl)c(-c3ccccn3)c2)c(Cl)c1 [Vismodegib] (10 nM)
4. CCN1CCN(c2ccc(Nc3cc(N(C)C(=O)Nc4c(Cl)c(OC)cc(OC)c4Cl)ncn3)cc2)CC1 [NVP-BGJ398] (1 nM)

Result string:
1. 89.8
2. 120
3. 100
4. 88.4

====

Tested on: CAL-148
Experiment: normalised viability (% of control), CellTiter-Blue; higher = more viable cells (about 100 = DMSO control)
Settings: incubation time: 72 h
normalised viability strictly under 30% means T; at 30% or over means F.

Example entries and their recorded answers appear below.
compound: COc1cccc2cc(-c3nc([C@H]4CC[C@H](C(=O)O)CC4)n4ncnc(N)c34)[nH]c12 [OSI-027] (10000 nM)
class: T
--
compound: C[C@]1(c2nc3c(C(N)=O)cccc3[nH]2)CCCN1 [Veliparib] (10000 nM)
class: F
--
compound: Cc1ccc(F)c(NC(=O)Nc2ccc(-c3cccc4[nH]nc(N)c34)cc2)c1 [Linifanib] (1000 nM)
class: F
--
compound: OC[C@H]1O[C@@H](n2cnc3c2N=CNC[C@H]3O)C[C@@H]1O [Pentostatin] (10000 nM)
class: F

# input for lookup
Query string: Threshold test, normalised viability < 30%: CC[C@]1(O)C[C@@H]2CN(CCc3c([nH]c4ccccc34)[C@@](C(=O)OC)(c3cc4c(cc3OC)N(C)[C@H]3[C@@](O)(C(=O)OC)[C@H](OC(C)=O)[C@]5(CC)C=CCN6CC[C@]43[C@@H]65)C2)C1 [Vinblastine] (1000 nM)
Result string: T
